- Tested on: ragweed (common ragweed, Ambrosia elatior)
- experiment description: Test A preemergence, visual injury rating
- Assay type: in vivo
- condition notes: 125 g ai/ha, 0 to 100 scale (0 no effect, 100 complete control)
measurement label: Plant response rating, Ragweed

compound: CCCCC(=O)c1c(Oc2ncc(Cl)cn2)cccc1C(F)(F)F
meas value: 20

compound: CCCCOC(=O)c1c(Br)cccc1Oc1ncc(Cl)cn1
meas value: 0

compound: C#CCOC(=O)c1c(Br)cccc1Oc1ncc(Cl)cn1
meas value: 0

compound: COc1cccc(Oc2ncc(Cl)cn2)c1C(=O)OCCC(F)(F)F
meas value: 0

compound: CCCCCC(C#N)c1ccccc1Oc1ncc(Cl)cn1 (stereo not drawn)
meas value: 30

Turning now to a further record.
Reported Plant response rating, Ragweed ( O=C(CCCC(F)(F)F)c1c(Oc2ncc(Cl)cn2)cccc1C(F)(F)F ) = 20
